test: Half life in mouse at 3 mg/kg, iv; assay type: ADME, organism-based; parameters: dose 3 mg/kg, route intravenous; conditions: in vivo
quantity name: half-life (min)
Give the number; min is assumed, so skip it.

Inquiry: # input compound: Cc1cccc(NC(=O)Nc2ccc(-c3csc4c(-c5cccnc5)cnc(N)c34)cc2)c1 ; wanted: its half-life
Reply text: 24

====

biological target: UniProt:P35968
Sequence (P35968 whole entry): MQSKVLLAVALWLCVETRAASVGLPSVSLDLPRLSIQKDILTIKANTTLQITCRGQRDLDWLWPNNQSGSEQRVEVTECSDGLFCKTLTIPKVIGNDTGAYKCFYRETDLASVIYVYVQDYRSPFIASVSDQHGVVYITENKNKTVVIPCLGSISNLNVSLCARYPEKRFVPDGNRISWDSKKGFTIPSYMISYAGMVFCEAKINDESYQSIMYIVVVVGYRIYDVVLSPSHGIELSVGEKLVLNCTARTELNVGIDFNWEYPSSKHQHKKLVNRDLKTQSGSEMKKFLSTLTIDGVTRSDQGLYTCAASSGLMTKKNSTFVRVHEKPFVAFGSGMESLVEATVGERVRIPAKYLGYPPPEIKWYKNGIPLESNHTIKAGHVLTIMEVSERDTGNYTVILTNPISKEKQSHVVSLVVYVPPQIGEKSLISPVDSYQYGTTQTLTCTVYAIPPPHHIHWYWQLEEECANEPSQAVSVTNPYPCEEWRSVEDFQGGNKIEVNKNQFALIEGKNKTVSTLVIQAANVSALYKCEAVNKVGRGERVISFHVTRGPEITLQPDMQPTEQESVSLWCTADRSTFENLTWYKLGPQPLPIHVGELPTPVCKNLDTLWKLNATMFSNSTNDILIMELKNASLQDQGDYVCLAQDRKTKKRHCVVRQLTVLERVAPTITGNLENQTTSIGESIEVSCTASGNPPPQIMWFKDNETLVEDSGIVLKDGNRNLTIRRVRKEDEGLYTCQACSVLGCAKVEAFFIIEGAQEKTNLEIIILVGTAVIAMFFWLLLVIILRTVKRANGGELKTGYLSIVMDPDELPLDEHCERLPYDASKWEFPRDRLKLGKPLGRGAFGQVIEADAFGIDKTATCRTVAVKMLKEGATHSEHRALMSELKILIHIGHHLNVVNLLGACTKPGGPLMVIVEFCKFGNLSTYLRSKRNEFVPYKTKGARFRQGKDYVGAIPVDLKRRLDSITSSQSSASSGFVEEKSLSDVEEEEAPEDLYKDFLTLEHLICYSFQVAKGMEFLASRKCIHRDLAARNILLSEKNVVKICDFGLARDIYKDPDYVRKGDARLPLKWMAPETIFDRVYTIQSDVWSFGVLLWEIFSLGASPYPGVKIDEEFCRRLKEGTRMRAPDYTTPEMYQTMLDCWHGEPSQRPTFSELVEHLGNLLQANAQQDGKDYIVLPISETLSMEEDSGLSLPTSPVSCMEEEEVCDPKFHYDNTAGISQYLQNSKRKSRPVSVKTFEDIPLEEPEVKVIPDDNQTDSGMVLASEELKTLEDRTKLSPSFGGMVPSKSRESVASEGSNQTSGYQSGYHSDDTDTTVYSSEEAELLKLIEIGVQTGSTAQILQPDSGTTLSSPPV
quantity name: log10 of IC50 (log10 of the value in µM)
Hey, these are logged values: log10 of IC50, µM being the unit before logging.

INSERT INTO assay_data (chemical_string, quantity_name, reading) VALUES
  ('Cc1cccc(NC(=O)Nc2ccc(-c3csc4c(-c5ccc(O)cc5)cnc(N)c34)cc2)c1', 'log10 of IC50', -1.96);

Field: next compound
Inquiry: Entry Cc1cccc(NC(=O)Nc2ccc(-c3csc4c(-c5cncc6ccccc56)cnc(N)c34)cc2)c1 , system UniProt:P35968: what log10 of IC50 was measured?
Reply text: -0.41
